System: ROCK2 (Homo sapiens)
Experiment notes: ROCK kinase inhibition assay, FITC peptide substrate, LABCHIP 3000 readout
Type: biochemical
Condition summary: 5 μM ATP, 1.5 μM peptide substrate
Measure name: EC50 (nM)

1. COc1ccc(C(=O)N2CCC3(CC2)CCN(c2ccc(-c4cn[nH]c4)cc2)C3=O)cc1F = 16

====

pIC50 by entry:
System: ROCK2 (Homo sapiens, UniProt O75116)
Sequence (O75116 whole entry, species assumed): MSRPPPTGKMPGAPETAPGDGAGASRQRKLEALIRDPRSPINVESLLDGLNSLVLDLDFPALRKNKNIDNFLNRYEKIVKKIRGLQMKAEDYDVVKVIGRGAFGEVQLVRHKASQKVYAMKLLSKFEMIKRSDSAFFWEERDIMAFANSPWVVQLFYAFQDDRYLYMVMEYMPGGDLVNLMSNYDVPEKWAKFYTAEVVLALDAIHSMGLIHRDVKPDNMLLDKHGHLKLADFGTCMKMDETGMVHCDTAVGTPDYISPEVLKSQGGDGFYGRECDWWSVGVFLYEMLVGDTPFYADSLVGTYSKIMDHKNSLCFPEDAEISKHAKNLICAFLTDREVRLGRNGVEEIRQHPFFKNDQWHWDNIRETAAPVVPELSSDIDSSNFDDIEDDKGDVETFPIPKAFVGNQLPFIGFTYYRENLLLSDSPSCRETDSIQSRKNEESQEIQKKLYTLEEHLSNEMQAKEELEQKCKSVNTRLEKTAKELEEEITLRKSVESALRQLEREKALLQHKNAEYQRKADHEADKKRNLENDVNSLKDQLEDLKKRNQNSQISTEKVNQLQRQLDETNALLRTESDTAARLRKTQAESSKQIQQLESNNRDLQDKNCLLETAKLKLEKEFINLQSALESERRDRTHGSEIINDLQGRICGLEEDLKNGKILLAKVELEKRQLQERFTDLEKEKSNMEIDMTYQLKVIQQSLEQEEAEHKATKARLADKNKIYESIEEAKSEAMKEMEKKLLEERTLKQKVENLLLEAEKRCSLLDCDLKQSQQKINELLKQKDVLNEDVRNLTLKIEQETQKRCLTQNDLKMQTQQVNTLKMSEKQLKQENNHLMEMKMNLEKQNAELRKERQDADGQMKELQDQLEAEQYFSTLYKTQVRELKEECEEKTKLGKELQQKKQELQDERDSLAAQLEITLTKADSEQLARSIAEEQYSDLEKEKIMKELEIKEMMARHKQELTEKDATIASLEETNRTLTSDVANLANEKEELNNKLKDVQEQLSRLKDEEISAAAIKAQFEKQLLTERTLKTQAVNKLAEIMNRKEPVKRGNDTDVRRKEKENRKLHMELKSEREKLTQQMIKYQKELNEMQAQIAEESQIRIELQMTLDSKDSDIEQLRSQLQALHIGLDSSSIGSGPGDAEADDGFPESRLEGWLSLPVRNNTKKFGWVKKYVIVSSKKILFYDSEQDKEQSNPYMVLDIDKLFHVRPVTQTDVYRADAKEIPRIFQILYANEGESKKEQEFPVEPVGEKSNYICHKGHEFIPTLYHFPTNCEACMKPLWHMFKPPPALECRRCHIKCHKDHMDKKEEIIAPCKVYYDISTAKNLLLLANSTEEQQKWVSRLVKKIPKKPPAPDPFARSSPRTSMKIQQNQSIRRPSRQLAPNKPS
pIC50: −log10 of the molar value. Where a name gives a salt, the structure may show the parent alone.
Measure name: pIC50

1) COc1cc(N2CCC3(CCN(C(=O)c4csc(-c5ccccc5)n4)CC3)C2=O)ccc1-c1cn[nH]c1 [Example 84] = 6.86
2) COc1ccc(C(=O)N2CCC3(CCN(c4ccc(-c5cn[nH]c5)cc4)C3=O)C2)cc1 (centres unmarked) [Example 45] = 6.74
3) COc1cc(N2CCC3(CCN(C(=O)c4ccc5cc6n(c5c4)C(C)CNC6=O)CC3)C2=O)ccc1-c1cn[nH]c1 (centres unmarked) [Example 150] = 6.84
4) COc1cc(N2CCC3(CCN(C(=O)c4ccc(-n5cnnn5)cc4)CC3)C2=O)ccc1-c1cn[nH]c1 [Example 118] = 7.24
5) COc1cc(N2CCC3(CCN(C(=O)c4ccc(N5CCCCS5(=O)=O)cc4)CC3)C2=O)ccc1-c1cn[nH]c1 [Example 192] = 8.48
6) COc1ccc(C(=O)N2CCC3(CC2)CCN(c2ccc(-c4cn[nH]c4)c(OC)c2)C3=O)cc1F [Example 14] = 8.10
7) O=C(C1CC1)N1CCC2(CC1)CCN(c1ccc(-c3cn[nH]c3)cc1)C2=O [Example 7] = 6.06
8) COc1cc(N2CCC3(CCN(C(=O)c4ccc(NC(C)=O)cc4)CC3)C2=O)ccc1-c1cn[nH]c1 [Example 88] = 7.14
9) COc1ccc(C(=O)N2CCC3(CC2)CCN(c2ccc(-c4cn[nH]c4)c(OC)n2)C3=O)cc1 [Example 39] = 8.40
10) COc1ccccc1C(=O)N1CCC2(CCN(c3ccc(-c4cn[nH]c4)cc3)C2=O)C1 (centres unmarked) [Example 43] = 5.59
11) COc1cc(N2CCC3(CCN(C(=O)c4ccc(N5CCN(Cc6cccc(NS(C)(=O)=O)c6)CC5)cc4)CC3)C2=O)ccc1-c1cn[nH]c1 [Example 235] = 9.70
12) COc1cc(N2CCC3(CCN(C(=O)c4ccc(N5CCN(Cc6ccc(C(F)(F)F)cc6)CC5)cc4)CC3)C2=O)ccc1-c1cn[nH]c1 [Example 234] = 8.39
13) COc1cc(N2CCC3(CCN(C(=O)Nc4cccnc4)CC3)C2=O)ccc1-c1cn[nH]c1 [Example 214] = 5.83
14) COc1cc(N2CCC3(CCN(C(=O)c4cn5nc[nH]c(=O)c5c4C)CC3)C2=O)ccc1-c1cn[nH]c1 [Example 133] = 7.06
15) COc1cc(N2CCC3(CCN(C(=O)c4ccc(Oc5ncccn5)cc4)CC3)C2=O)ccc1-c1cn[nH]c1 [Example 105] = 7.11
16) COc1cc(N2CCC3(CCN(C(=O)c4ccc(S(N)(=O)=O)cc4)CC3)C2=O)ccc1-c1cn[nH]c1 [Example 55] = 7.02
17) COc1cc(N2CCC3(CCN(C(=O)c4ccc5ncsc5c4)CC3)C2=O)ccc1-c1cn[nH]c1 [Example 83] = 7.59
18) COc1cc(N2CCC3(CCN(C(=O)c4ccc(N5CCN(Cc6ccc(Cl)cc6)CC5)cc4)CC3)C2=O)ccc1-c1cn[nH]c1 [Example 227] = 8.66
19) COc1cc(N2CCC3(CCN(C(=O)c4csnn4)CC3)C2=O)ccc1-c1cn[nH]c1 [Example 77] = 6.34
20) COc1ccc(S(=O)(=O)N2CCC3(CCN(c4ccc(-c5cn[nH]c5)c(OC)c4)C3=O)CC2)cc1F [Example 212] = 6.55
21) COc1cc(N2CCC3(CCN(C(=O)c4cscn4)CC3)C2=O)ccc1-c1cn[nH]c1 [Example 86] = 6.35
22) COc1cc(N2CCC3(CCN(C(=O)c4cc(C)n(C)n4)CC3)C2=O)ccc1-c1cn[nH]c1 [Example 188] = 7.51
23) O=C1N(c2ccc(-c3cn[nH]c3)cc2)CCC12CCNCC2 [Intermediate 3, TFA] = 6.00
24) COc1cc(N2CCC3(CCN(C(=O)c4cc5ccccc5s4)CC3)C2=O)ccc1-c1cn[nH]c1 [Example 76] = 7.57
25) COc1cc(N2CCC3(CCN(C(=O)c4ccc(N5CCN(Cc6cccc(Cl)c6)CC5)cc4)CC3)C2=O)ccc1-c1cn[nH]c1 [Example 186] = 8.92
26) COc1cc(N2CCC3(CCN(C(=O)c4ccc(-c5cc[nH]n5)cc4)CC3)C2=O)ccc1-c1cn[nH]c1 [Example 53] = 7.78
27) Cn1nc(C(=O)N2CCC3(CC2)CCN(c2ccc(-c4cn[nH]c4)cc2)C3=O)c2ccccc21 [Example 6] = 6.84
28) COc1ncc(C(=O)N2CCC3(CC2)CCN(c2ccc(-c4cn[nH]c4)c(OC)c2)C3=O)cn1 [Example 99] = 6.33
29) COc1cc(-c2cn[nH]c2)ccc1C(=O)N1CCC2(CC1)CCN(c1ccc(-c3cn[nH]c3)c(OC)c1)C2=O [Example 159] = 7.54
